Reported IC50 values, Microtubule-associated protein 1 light chain 3 beta (Homo sapiens).
One number for each entry, in µM.

structurestring=O=C1Nc2ccc(I)cc2/C1=C\c1cc(Br)c(O)c(Br)c1 readoutnumber=4.4

# get_value(readout='IC50', item= O=C1Nc2ccc(I)cc2/C1=C\c1ccc(C(=O)O)cc1 )
119

These data points were gathered from ChEMBL document CHEMBL6153161.
